The entries below come with measured growth values attached.
Tested on: HCT-15 colon
Assay: NCI-60 one-dose screen, 48 h (100 = growth as untreated, 0 = no growth, -100 = all killed)
Details: 10 µM unless noted
Protocol: Growth inhibition of the HCT-15 human tumor cell line is measured as a screen for anti-cancer activity. Cells are grown in 96 well plates and exposed to the test compound for 48 hours. Compounds are tested at a single concentration, which is 10^-5 M for most compounds. The reported endpoint is percent growth (GI% or GIPRCNT), where numbers from 0 - 100% represent growth inhibition, and numbers from -100% - 0 represent cell death. For example, a value of 40 represents 60% growth inhibition. […]
The panel holds about 83,000 compounds, 20% with a hit somewhere; the sample as a whole holds those more often.
API: value field is a number in %; no unit string.

Problem: Input COC(=O)c1ccc(CSc2nnc(-c3ccncc3)o2)cc1 , output reported growth.
Solution: 108

Problem: Name the recorded growth of the item COc1cc(-c2cc(-c3ccc(Nc4nc(Nc5ccccc5)nc(Nc5ccc(Cl)cc5)n4)cc3)nc(N)n2)cc(OC)c1OC in your answer.
Solution: 62.3

Problem: Specify reported growth for the molecule shown: CSc1ncc(C)c(Nc2ccc(Cl)cc2)n1
Solution: 99.3

----------
Tested on: SF-539 CNS
Assay: NCI-60 one-dose screen, 48 h
Details: 10 µM unless noted
About 83,000 compounds went through this panel and 20% of them were active in at least one assay; those are over-represented in the sample as a whole. Activity calls are given as the source filed them. The calls were made as follows: active = growth percent below 10; inactive = the rest.
In this exercise, the only acceptable responses are yes (1) (active), no (0) (inactive)

Example cases with answers are listed next.
- molecule: "Clc1ccc2c(NCCCN3CCN(c4nc(N5CCOCC5)nc5ccccc45)CC3)ccnc2c1"
  cat: "yes (1)"
- molecule: "C=CCOc1cccc(/C=C2\\SC(=Nc3ccc(O)cc3)NC2=O)c1"
  cat: "yes (1)"
- molecule: "Cc1[nH]c(-c2nc3ccccc3[nH]2)c(C)c1C(=O)NNc1ccc(Cl)cc1"
  cat: "no (0)"
- molecule: "O=C(/C=C/C12c3ccccc3C(c3ccccc31)C1C(=O)N(c3ccccc3)C(=O)C12)c1ccc(Cl)cc1 (configuration not stated)"
  cat: "yes (1)"
- molecule: "COc1cc(C(=O)/C=C/c2c(-c3ccc(F)cc3)nc3ncccn23)cc(OC)c1OC"
  cat: "no (0)"

Problem: Kindly provide the recorded test outcome for the following molecule: N#Cc1c(Oc2ccc([N+](=O)[O-])cc2)nc2sc3cc(Cl)ccc3n2c1=N
Solution: no (0)

Problem: Entry COc1ccc(OC)c(/C=C2\COc3ccc(O)c(O)c3C2=O)c1 : call = ?
Solution: yes (1)

----------
Tested on: A549/ATCC NSCLC
Test: NCI-60 one-dose screen, 48 h (100 = growth as untreated, 0 = no growth, -100 = all killed)
Details: 10 µM unless noted
The panel holds about 83,000 compounds, 20% with a hit somewhere; the sample as a whole holds those more often.
quantity: growth (%)
Report as a plain number; the unit % is understood.

Here is how some molecules turned out for growth.
- molecule: "C=C1c2c(C)nn(-c3ccc(NC(C)=O)cc3)c2N(C)C23CC1C1(C)c4c(C)nn(-c5ccc(NC(C)=O)cc5)c4N(C)C(C)(CC12)C3 (stereo not given)"
  growth / %: 26.3
- molecule: "Nc1c(C(=O)Nc2ccccc2)sc2nc3c(cc12)CCCCCC3"
  growth / %: 15
- molecule: "Fc1ccc(Nc2nc3nonc3nc2Nc2ccc(F)cc2)cc1"
  growth / %: 6.26
- molecule: "Cc1[nH]c(-c2nc3ccccc3[nH]2)c(C)c1C(=O)N1CCc2sccc2C1"
  growth / %: 93

Lab note: next molecule to report on.
Problem: State, in one line, measured growth of CNC(=O)c1cc(Oc2ccc3nc(Nc4cc(Cl)cc(Cl)c4)ccc3c2)ccn1
Solution: 49.3
